The origin of these recorded values is PubChem BioAssay AID2060325.

- System: SK-OV-3 multi-cell spheroids, viability
- Experimental details: Anticancer human tumor SK-OV-3 cell line growth inhibition [IpAb];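 further: viability read after seven days of drug exposure; percent of DMSO vehicle control luminescence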
- Setup conditions: second compound 1 µM; first compound 0.03 µM; stronger effect = lower value
Property: viability, T/C; scope: individual compounds
Value kind: viability, T/C (%)

compound="Cn1cnc2c(F)c(Nc3ccc(Br)cc3Cl)c(C(=O)NOCCO)cc21 + CCN1CCN(Cc2ccc(Nc3ncc(F)c(-c4cc(F)c5nc(C)n(C(C)C)c5c4)n3)nc2)CC1" tested_target="SK-OV-3 multi-cell spheroids, viability" value_kind="viability, T/C" reported_measurement=50.6
compound="Cn1cnc2c(F)c(Nc3ccc(Br)cc3Cl)c(C(=O)NOCCO)cc21 + CC(C)NCC(C(=O)N1CCN(c2ncnc3c2C(C)CC3O)CC1)c1ccc(Cl)cc1" tested_target="SK-OV-3 multi-cell spheroids, viability" value_kind="viability, T/C" reported_measurement=16.7
compound="CC(C)(C)c1cnc(CSc2cnc(NC(=O)C3CCNCC3)s2)o1 + CCN1CCN(Cc2ccc(Nc3ncc(F)c(-c4cc(F)c5nc(C)n(C(C)C)c5c4)n3)nc2)CC1" tested_target="SK-OV-3 multi-cell spheroids, viability" value_kind="viability, T/C" reported_measurement=51.1
